Where these numbers come from: a melting point compilation (Tetko et al.; mined from patent text by program, amines drawn as free bases though some values may be those of a salt)

Below, each of the compounds is paired with its reported melting point value.
experimental-readout: melting point

compound: Cc1cn(NCCCc2ccncc2F)c2ccc(O)cc12
experimental-readout: melting point
result: 157 to 160 °C
//
compound: Cc1cc(SCc2ccc(OCc3ccc(C(F)(F)F)cc3)cc2)c(Cl)cc1OCC(=O)O
experimental-readout: melting point
result: 142 to 143 °C
//
compound: O=C(Cl)c1cc(OCc2ccccc2)cc(OCc2ccccc2)c1
experimental-readout: melting point
result: 73 to 74 °C
//
compound: O=C(c1ccc(F)cc1)c1ccc2[nH]c(=O)nc(-c3cccc(Cl)c3)c2c1
experimental-readout: melting point
result: 226 °C
//
compound: O=C1C(c2cc3c(cc2O)OCCO3)c2ccccc2N1C(c1ccccc1)c1ccccc1 (centres undefined)
experimental-readout: melting point
result: 157 to 160 °C
//
compound: CCCCN1CCC(C(=O)NO)(S(=O)(=O)c2ccc(OC)cc2)CC1
experimental-readout: melting point
result: 75 °C
//
compound: COc1ccc(CNc2nccc(-c3c[nH]nc3-c3ccc(F)cc3)n2)cc1
experimental-readout: melting point
result: 183 to 185 °C
//
compound: CCC(C)c1ccc(-n2c(-c3cc(C)c(OCCO)c(C)c3)nc3c(OC)cccc3c2=O)cc1 (centres undefined)
experimental-readout: melting point
result: 158 to 159 °C
//
compound: CC(=O)Nc1ccc2c3c(cccc13)S(=O)(=O)C(C)N2 (centres undefined)
experimental-readout: melting point
result: 189 to 190 °C

---

Recorded measurements of melting point, one per entry
experimental-readout: melting point

molecule: ClCCc1cc(-c2ccc(Cl)cc2)n(-c2ccc(OCc3ccc4ccccc4n3)cc2)n1
result: 105 °C

molecule: COc1cc(-c2cc(=O)c3c(OC)cc(OC)c(C4=CCN(C)CC4)c3o2)cc(OC)c1OC
result: 211 to 212 °C

molecule: CONC(=O)CC(C#Cc1ccccc1)c1ccc(OC)c(OC2CCCC2)c1 (racemic)
result: 111 to 114 °C

molecule: O=S1(=O)N=C(NC2CCC2)Nc2cc(Cl)c(Cl)cc21
result: 320 to 326 °C

molecule: CCOC(=O)C(=Cc1c[nH]c2cc(C)ccc12)NC(C)=O
result: 159 to 162 °C

molecule: NC(=O)Cn1c(Cl)ccc1Cl
result: 183 to 184 °C

molecule: CC(O)c1ccc(-c2ccc(C(=O)OCc3ccccc3)cc2)cc1 (single isomer, unassigned; (+))
result: 104 to 106 °C

molecule: O=c1c2c(O)cc(OCC3CS3)cc2oc2ccc3ccccc3c12 (stereo unspecified)
result: 167 to 168 °C

molecule: Cn1c2cc(C=O)ccc2c2nc3ccccc3nc21
result: 237 to 238 °C

molecule: O=C(SC1CCC1C(=O)N1CCC[C@H]1C(=O)O)c1ccccc1 (stereo partly specified)
result: 123 to 124 °C

molecule: O=CN(CCOc1ccc2ccccc2c1)c1ccc(C(=O)C(=O)O)cc1
result: 155 to 156 °C

molecule: O=C1CCCc2nc(C#Cc3cccnc3)ccc21
result: 120 to 122 °C

molecule: O=C1CCCC2=C1C(c1ccc(F)c(Br)c1)C1=C(CCCC1)N2 (stereo unspecified)
result: 254 to 257 °C

molecule: CCOc1cc2c(cc1OC)C(c1ccc(C(=O)O)cc1)=N[C@@H]1CCOC[C@H]21
result: 203 to 205 °C

molecule: Fc1ccc2c(c1F)OCc1csc(=S)n1-2
result: 163 to 167 °C

molecule: O=Cc1cnn(Cc2ccccc2)c1-c1ccccc1
result: 99 to 100 °C

molecule: CCOC(=O)CCCCn1c(=O)[nH]c2ccsc2c1=O
result: 116 to 117 °C

molecule: CS(=O)(=O)Nc1ccc(Cn2c(=O)n(Cc3ccc(C(F)(F)F)cc3)c3ccccc32)cc1
result: 193 to 197 °C

molecule: COc1ccc(Cl)cc1C(=O)Cl
result: 59 to 60 °C

molecule: COC(=O)c1ccc(OCC2CN(c3ccc(Cl)cc3)C(=O)O2)cc1 (stereo unspecified)
result: 146 to 148 °C

molecule: CN1CCCC1=NC(=O)Nc1ccc(Cl)cc1
result: 138 to 141 °C

---

mol: CC(C)(C)c1cc(CCC(=O)NCCOC(=O)CCc2cc(C(C)(C)C)c(O)c(C(C)(C)C)c2)cc(C(C)(C)C)c1O
melting point: 151 to 154 °C
//
mol: Cc1ccc(-c2cccc(/C=C/C(=O)Nc3ccc(CN(C)CC#N)cc3)c2)cc1
melting point: 163 to 165 °C
//
mol: O=C(O)Cc1c(C(=O)c2ccc(Cl)cc2)[nH]c2ccc(OC(F)(F)F)cc12
melting point: 195 °C
//
mol: CCOC(=O)CCc1nnc(-c2ccc3c(c2)CCO3)o1
melting point: 81 to 82 °C
//
mol: Cn1cc(Br)nc(Nc2cnn(C3CC3)c2)c1=O
melting point: 228 to 230 °C

---

Below: a set of entries, each annotated with reported melting point.

compound: O=C(Nc1ccc(Cl)c(Cl)c1)c1cc(Br)ccc1O
melting point: 249 to 251 °C
--
compound: CCOC(=O)CCC(=O)c1cnc2c(OC)cccc2c1Nc1ccccc1C
melting point: 210 to 211 °C
--
compound: O=c1cc(-c2ccccc2)n(-c2ccccc2Cl)c(-c2ccccc2)c1Cl
melting point: 230 to 233 °C
--
compound: N#CSCC(=O)N1CCCC1
melting point: 95 to 96 °C
--
compound: COC(=O)C1=Cc2ccccc2N(C)CCC1
melting point: 80 to 82 °C
--
compound: N#CC1CN1C(=O)NC(=O)c1cccs1 (stereo unspecified)
melting point: 156 to 160 °C
--
compound: CCCCNC(=O)NS(=O)(=O)c1ccccc1-c1nn(C)c(=O)o1
melting point: 110 to 115 °C
--
compound: Cc1nccc2[nH]c(=O)c(-c3noc(C4CC4)n3)cc12
melting point: 259 to 260 °C
--
compound: COC(=O)c1ccc(-n2c(C)nc3cc(C#N)ccc32)cc1
melting point: 179 to 181 °C
--
compound: O=C(NCc1ccc(F)cc1)N1CCC(Oc2ccc(CCNC[C@H](O)COc3ccc(O)cc3)cc2)CC1
melting point: 126 to 128 °C
--
compound: Cc1nc2ccc(F)cc2c(=O)n1C1CCC(=O)NC1=O (stereo unspecified)
melting point: 273 to 275 °C
--
compound: Cc1ccc(-c2cc(OCC3CO3)c3ccccc3n2)cc1 (racemic)
melting point: 100 to 102 °C
--
compound: CC(C)(C)OC(=O)CC(NC(=O)CCNC(=O)Cc1ccc(C#N)cc1)C(=O)NC(Cc1ccccc1)C(=O)OC(C)(C)C (stereo unspecified)
melting point: 93 to 94 °C
--
compound: CS(=O)(=O)N(Cc1cccnc1)c1ccc(Cl)cc1Cl
melting point: 180 to 186 °C
--
compound: O=C(NC1N=C(c2ccccc2F)c2ccccc2NC1=O)c1ccc[nH]1 (racemic)
melting point: 271 to 274 °C
--
compound: S=C1CNCCN1Cc1ccccc1
melting point: 70 to 73 °C
--
compound: Cc1cccc(-c2sc(N)nc2-c2ccnc(-c3ccc(OCC(N)=O)cc3)c2)n1
melting point: 191 °C
--
compound: O=C1NCCN(CC(=O)N2CCOCC2)C1c1cccs1 (stereo unspecified)
melting point: 190 to 193 °C
--
compound: Cn1cc(C2=C(C3CCCCC3)C(=O)NC2=O)c2ccccc21
melting point: 224 to 225 °C
--
compound: O=C(Nc1cccc2c1C(=O)c1c-2n[nH]c1-c1ccc(C(=O)N2CCCC2)s1)NN1CCOCC1
melting point: > 300 °C
--
compound: CC(C)(C)c1cc(C(=O)Nc2nc(C(=O)O)cs2)cc(C(C)(C)C)c1O
melting point: 291 to 293 °C

---

List of melting point values.
experimental-readout: melting point

compound: O=C(Cn1nnc2ccccc21)Nc1ccc(-n2nc(C(F)(F)F)cc2C2CC2)nc1
result: 189 to 192 °C
//
compound: CCc1nc(N)nc(N)c1-c1ccccc1Cl
result: 197 to 198 °C
//
compound: CCC(CC)NC1=CC(CC(C(=O)OC)C(=O)OC)(Nc2c(C)cc(C)cc2C)NC(C)=C1 (stereo unspecified)
result: 136 to 138 °C
//
compound: Cc1ccc(-c2c(CC(=O)O)c(C3CCCCC3)nn2-c2ccccc2)cc1
result: 189 to 191 °C
//
compound: CC(C)(C)OC(=O)n1[nH]c(=O)c2ccccc21
result: 145 °C
//
compound: CCCCCCC(C)(C)c1cc(OC)c(C2C(O)[C@]3(C)CC[C@H]2C3(C)C)c(OC)c1 (stereo partly specified)
result: 96 to 98 °C
//
compound: O=c1[nH]c2cc(Cl)ccc2c(O)c1Sc1ccccc1Br
result: > 300 °C
//
compound: CSC(=NCCSCc1ncccc1Cl)NC#N
result: 120 to 121 °C
//
compound: CNC(=NCCSCc1cnc(C)[nH]1)NC#N
result: 141 to 142 °C
//
compound: NNC(=O)c1ccn2ncnc2c1
result: 244 to 245 °C
//
compound: Nc1c(Cl)cc(Cl)c(CCC(=O)O)c1Cl
result: 145 °C
//
compound: CCCc1nc(C(O)C(C)C)c(C(N)=O)n1Cc1ccc(-c2ccccc2-c2nnn[nH]2)cc1 (stereo unspecified)
result: 153 to 157 °C
//
compound: CC(C)C[C@@H]1N[C@@H](c2ccc(C#N)cc2)[C@H]2C(=O)N(Cc3ccccc3)C(=O)[C@H]21 (racemic)
result: 152 to 153 °C
//
compound: CCOC(=O)C1C2OC3COC(C)(C)OC3C(OC)C21 (stereo unspecified)
result: 65 to 68 °C
//
compound: CCOC(=O)C(C(=O)CC)C(=O)OCC
result: 89 to 93 °C
//
compound: CCC(C)N(C)C(=O)c1cc(-c2ccccc2F)c2sccc2c1 (stereo unspecified)
result: 89 °C
//
compound: CS(=O)(=O)c1ccc(-c2cocc2-c2ccc(F)cc2)cc1
result: 160 to 161 °C
//
compound: CSc1cc(-c2ccccc2)nc(-c2cccc(CCl)c2)c1
result: 56.8 °C
//
compound: COc1cc(CCCC2OC(=O)NC2=O)ccc1OCc1csc(-c2ccccc2)n1 (stereo unspecified)
result: 96 to 97 °C
//
compound: COc1cc2c(cc1NC(=S)Nc1ccc([N+](=O)[O-])cc1)C(C)(C)OCC2(C)C
result: 198 to 199 °C
//
compound: CCOc1c(C(=O)NCC(O)CN(CC)CC)n(-c2ccccc2)c2ccccc12 (stereo unspecified)
result: 146 to 148 °C
//
compound: CN1CC(CCN2CCN(c3ncccn3)CC2)c2nc3ccccc3n2C1=O (stereo unspecified)
result: 161 to 162 °C
//
compound: CCOC(=O)C1=C(COCC(C)=O)NC(C)=C(C(=O)OC)C1c1cccc(Cl)c1Cl (stereo unspecified)
result: 117 to 119 °C
//
compound: Cn1cc(C2=C(c3cn(CCCO)c4ccccc34)C(=O)NC2=O)c2ccccc21
result: 185 to 187 °C
//
compound: CC(C)(COS(N)(=O)=O)Oc1ccc(Cl)cc1
result: 76 to 79 °C
//
compound: CCOc1ccc2c(c1)n(-c1ccccn1)c(=O)n2S(=O)(=O)c1ccc(C(=O)O)cc1OC
result: 241 °C
//
compound: CCCCCCCCNC(=O)Nc1nc2nc(NCCCN3CCN(C)CC3)ncc2cc1-c1c(Cl)cccc1Cl
result: 54.5 to 57.5 °C
//
compound: CC(C)=CCn1c(Cl)nc2c1c(=O)[nH]c(=O)n2C
result: 226 to 228 °C
//
compound: O=C(Nc1ccccc1C(=O)NCc1ccccc1)N[C@@H](Cc1ccc(NC(=O)c2c(Cl)cccc2Cl)cc1)C(=O)O
result: 165 °C
//
compound: Nc1cccc2c1sc1c(Nc3cccc(Br)c3)ncnc12
result: 216 to 217 °C
//
compound: O=C(OCc1ccccc1)[C@H](Cc1ccccc1)NC(=O)N1CCOCC1
result: 85 to 87 °C
//
compound: Nc1cccc(S(=O)(=O)NCc2ccncc2)c1
result: 139 °C
//
compound: COC(=O)c1ccc(OCC2CCCN(C)C2)cc1 (stereo unspecified)
result: 55 to 56 °C
//
compound: Cc1c(C(F)(F)F)nc2c(C(F)(F)F)cccc2c1Br
result: 81.9 to 82.3 °C
//
compound: COc1cc(C#N)c(C(C)=O)cc1[N+](=O)[O-]
result: 224 to 226 °C
//
compound: O=C(O)c1cccc(C(=O)O)c1Nc1ccc(I)cc1
result: 241 to 243 °C
//
compound: COc1cccc(CC(=O)O)c1OCCCc1cc(OC(C)C)nn1Cc1ccc2ccccc2n1
result: 129 to 130 °C
//
compound: O=C1CCCn2c(=O)n(Cc3ccccc3)c3cccc1c32
result: 135 °C
//
compound: O=C(O)CCC(=O)Nc1ccc(Nc2ccccc2)cc1
result: 175 to 176 °C
//
compound: Cc1ccc(S(=O)(=O)Cl)c(C)c1NC(=O)CCl
result: 148 to 149 °C
//
compound: CCCCCC(=O)OCC(CCn1cnc2c(=O)[nH]c(N)nc21)COC(=O)CCCCC
result: 198 °C
